FYI, the data here is from ChEMBL document CHEMBL4138266.

Quick list: MBC per entry.
- Tested on: Escherichia coli
- assay_comment: Bactericidal activity against Escherichia coli CIP54.8T incubated for 30 mins under dark conditions
- Format: organism-based
- condition_set: 0.5 h
parameter: MBC

1. CCCCCCCC(=O)N[C@@H](CS)C(=O)N[C@H](C(=O)N[C@@H](CCCCN)C(=O)N[C@H]1CCNC(=O)[C@H]([C@@H](C)O)NC(=O)[C@H](CCCCN)NC(=O)[C@H](CCCCN)NC(=O)[C@H](CC(C)C)NC(=O)[C@@H](Cc2ccccc2)NC(=O)[C@H](CCCCN)NC1=O)[C@@H](C)O ... 50 µM
2. CCCCCCCC(=O)N[C@@H](CS)C(=O)N[C@H](C(=O)N[C@@H](CCN)C(=O)N[C@H]1CCNC(=O)[C@H]([C@@H](C)O)NC(=O)[C@H](CCN)NC(=O)[C@H](CCN)NC(=O)[C@H](CC(C)C)NC(=O)[C@@H](Cc2ccccc2)NC(=O)[C@H](CCN)NC1=O)[C@@H](C)O ... 5 µM
3. CCCCCCCC(=O)N[C@@H](CSC1CC(=O)N(CCCCCC(=O)Nc2ccc(-c3c4nc(c(-c5cc[n+](C)cc5)c5ccc([nH]5)c(-c5cc[n+](C)cc5)c5nc(c(-c6cc[n+](C)cc6)c6ccc3[nH]6)C=C5)C=C4)cc2)C1=O)C(=O)N[C@H](C(=O)N[C@@H](CCCCN)C(=O)N[C@H]1CCNC(=O)[C@H]([C@@H](C)O)NC(=O)[C@H](CCCCN)NC(=O)[C@H](CCCCN)NC(=O)[C@H](CC(C)C)NC(=O)[C@@H](Cc2ccccc2)NC(=O)[C@H](CCCCN)NC1=O)[C@@H](C)O.[I-].[I-].[I-] (some centres undefined) ... 25 µM
4. CCCCCCCC(=O)N[C@@H](CSC1CC(=O)N(CCCCCC(=O)Nc2ccc(-c3c4nc(c(-c5cc[n+](C)cc5)c5ccc([nH]5)c(-c5cc[n+](C)cc5)c5nc(c(-c6cc[n+](C)cc6)c6ccc3[nH]6)C=C5)C=C4)cc2)C1=O)C(=O)N[C@H](C(=O)N[C@@H](CCN)C(=O)N[C@H]1CCNC(=O)[C@H]([C@@H](C)O)NC(=O)[C@H](CCN)NC(=O)[C@H](CCN)NC(=O)[C@H](CC(C)C)NC(=O)[C@@H](Cc2ccccc2)NC(=O)[C@H](CCN)NC1=O)[C@@H](C)O.[I-].[I-].[I-] (some centres undefined) ... 1.2 to 5 µM

----------
- Tested on: Pseudomonas aeruginosa
- assay_comment: Bactericidal activity against Pseudomonas aeruginosa CIP76110 incubated for 30 mins under dark conditions
- Format: organism-based
- condition_set: 0.5 h
parameter: MBC

1) CCCCCCCC(=O)N[C@@H](CSC1CC(=O)N(CCCCCC(=O)Nc2ccc(-c3c4nc(c(-c5cc[n+](C)cc5)c5ccc([nH]5)c(-c5cc[n+](C)cc5)c5nc(c(-c6cc[n+](C)cc6)c6ccc3[nH]6)C=C5)C=C4)cc2)C1=O)C(=O)N[C@H](C(=O)N[C@@H](CCN)C(=O)N[C@H]1CCNC(=O)[C@H]([C@@H](C)O)NC(=O)[C@H](CCN)NC(=O)[C@H](CCN)NC(=O)[C@H](CC(C)C)NC(=O)[C@@H](Cc2ccccc2)NC(=O)[C@H](CCN)NC1=O)[C@@H](C)O.[I-].[I-].[I-] (some centres undefined) ... 10 µM
2) CCCCCCCC(=O)N[C@@H](CS)C(=O)N[C@H](C(=O)N[C@@H](CCCCN)C(=O)N[C@H]1CCNC(=O)[C@H]([C@@H](C)O)NC(=O)[C@H](CCCCN)NC(=O)[C@H](CCCCN)NC(=O)[C@H](CC(C)C)NC(=O)[C@@H](Cc2ccccc2)NC(=O)[C@H](CCCCN)NC1=O)[C@@H](C)O ... > 100 µM
3) CCCCCCCC(=O)N[C@@H](CSC1CC(=O)N(CCCCCC(=O)Nc2ccc(-c3c4nc(c(-c5cc[n+](C)cc5)c5ccc([nH]5)c(-c5cc[n+](C)cc5)c5nc(c(-c6cc[n+](C)cc6)c6ccc3[nH]6)C=C5)C=C4)cc2)C1=O)C(=O)N[C@H](C(=O)N[C@@H](CCCCN)C(=O)N[C@H]1CCNC(=O)[C@H]([C@@H](C)O)NC(=O)[C@H](CCCCN)NC(=O)[C@H](CCCCN)NC(=O)[C@H](CC(C)C)NC(=O)[C@@H](Cc2ccccc2)NC(=O)[C@H](CCCCN)NC1=O)[C@@H](C)O.[I-].[I-].[I-] (some centres undefined) ... > 100 µM
4) CCCCCCCC(=O)N[C@@H](CS)C(=O)N[C@H](C(=O)N[C@@H](CCN)C(=O)N[C@H]1CCNC(=O)[C@H]([C@@H](C)O)NC(=O)[C@H](CCN)NC(=O)[C@H](CCN)NC(=O)[C@H](CC(C)C)NC(=O)[C@@H](Cc2ccccc2)NC(=O)[C@H](CCN)NC1=O)[C@@H](C)O ... 10 µM
